System: UniProtKB P41595
Quantity: Ki (nM)
Numbers only, in nM.

Result for NCC(=O)NCCN1CCN(CCCN2c3ccccc3Sc3ccc(C(F)(F)F)cc32)CC1 , tested on UniProtKB P41595, Ki: 5.2

###

Test Summary: Drug concentration in male mouse brain at 5 mg/kg, ip measured after 0.5 hrs by LC-MS/MS analysis
Assay type: ADME, organism-based
Conditions Used: read-out: Ct
Quantity: concentration at 0.5 h

concentration at 0.5 h reading for COc1ccc(S(=O)(=O)N[C@H]2CCN(C(=O)CC[C@H](N)C(=O)O)C2)cc1C(=O)Nc1ccccc1Cl.Cl : < 31.3 ng/g

###

System: CYP1A2 (Homo sapiens)
Sequence (P05177 whole entry): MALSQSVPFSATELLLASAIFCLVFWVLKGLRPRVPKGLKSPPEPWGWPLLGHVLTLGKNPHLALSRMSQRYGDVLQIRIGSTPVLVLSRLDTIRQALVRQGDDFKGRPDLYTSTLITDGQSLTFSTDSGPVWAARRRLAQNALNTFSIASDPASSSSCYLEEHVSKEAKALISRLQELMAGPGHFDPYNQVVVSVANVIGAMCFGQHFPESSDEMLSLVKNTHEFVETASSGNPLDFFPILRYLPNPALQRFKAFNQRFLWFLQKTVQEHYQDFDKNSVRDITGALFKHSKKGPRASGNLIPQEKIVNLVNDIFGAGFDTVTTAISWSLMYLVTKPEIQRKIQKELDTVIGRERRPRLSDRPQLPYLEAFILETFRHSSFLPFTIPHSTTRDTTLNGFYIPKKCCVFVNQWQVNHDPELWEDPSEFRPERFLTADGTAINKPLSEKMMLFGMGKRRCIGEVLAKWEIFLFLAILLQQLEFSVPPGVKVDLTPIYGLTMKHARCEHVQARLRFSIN
Test Summary: Inhibition of CYP1A2 (unknown origin) at 1 uM preincubated for 10 mins followed by NADPH addition and measured after 20 mins by luminescence based microplate reader analysis relative to control
Type: ADME
Conditions Used: time 30 min
Quantity: inhibition at 20 min, 1 µM

inhibition at 20 min, 1 µM reading for COc1ccc(S(=O)(=O)N[C@H]2CCN(C(=O)CC[C@H](N)C(=O)O)C2)cc1C(=O)Nc1ccccc1Cl.Cl : < 1%

###

Test Summary: Drug concentration in male mouse plasma at 5 mg/kg, ip measured after 0.5 hrs
Format: ADME, organism-based
Quantity: concentration at 0.5 h (µg/mL)
Answers are plain numbers, in µg/mL.

concentration at 0.5 h reading for COc1ccc(S(=O)(=O)N[C@H]2CCOC2)cc1C(=O)Nc1ccccc1Cl : 0.0992

###

Test Summary: Drug concentration in male mouse brain at 5 mg/kg, ip measured after 0.5 hrs
Format: ADME, organism-based
Conditions Used: read-out: Ct
Quantity: concentration at 0.5 h
Please answer using a numeric value trailed by its unit.

concentration at 0.5 h reading for COc1ccc(S(=O)(=O)N[C@H]2CCOC2)cc1C(=O)Nc1ccccc1Cl : 51.7 ng/g

###

Test Summary: Metabolic stability in human liver microsomes assessed as parent compound remaining measured after 30 mins in presence of NADPH by LC-MS/MS analysis
Type: ADME, Microsome
Conditions Used: read-out: Stability
Quantity: remaining at 0.5 h
Please answer using a numeric value trailed by its unit.

remaining at 0.5 h reading for COc1ccc(S(=O)(=O)N[C@H]2CCN(C(=O)CC[C@H](N)C(=O)O)C2)cc1C(=O)Nc1ccccc1Cl.Cl : 97.6%

###

System: 5-hydroxytryptamine receptor 2B (Homo sapiens)
Sequence (P41595 whole entry): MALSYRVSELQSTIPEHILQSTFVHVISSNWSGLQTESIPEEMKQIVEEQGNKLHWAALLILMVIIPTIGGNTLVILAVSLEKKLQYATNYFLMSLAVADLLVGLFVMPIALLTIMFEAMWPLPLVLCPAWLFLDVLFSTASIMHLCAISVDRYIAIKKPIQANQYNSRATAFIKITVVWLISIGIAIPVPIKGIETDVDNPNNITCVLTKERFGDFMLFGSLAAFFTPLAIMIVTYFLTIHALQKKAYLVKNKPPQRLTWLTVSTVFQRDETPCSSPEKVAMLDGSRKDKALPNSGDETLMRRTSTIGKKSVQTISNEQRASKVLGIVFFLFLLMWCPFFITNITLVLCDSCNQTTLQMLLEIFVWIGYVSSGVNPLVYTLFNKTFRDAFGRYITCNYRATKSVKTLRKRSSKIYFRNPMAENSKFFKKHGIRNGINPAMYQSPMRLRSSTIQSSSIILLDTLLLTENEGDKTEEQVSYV
Test Summary: Antagonist activity at 5HT2B (unknown origin) expressed in FRT cells co-expressing ANO1 and YFP assessed as inhibition of 5HT-induced increase in iodide influx at 1 uM preincubated with compound for 10 mins followed by 5-HT addition and measured after 8 sec by YFP fluorescence quenching analysis relative to control
Format: cell-based
Conditions Used: filed as antagonist, time 608.0 sec
Quantity: inhibition (%)
Numbers only, in %.

| Structure | Unit Abbrev | inhibition |
| --- | --- | --- |
| COc1ccc(S(=O)(=O)N[C@H]2CCN(C(=O)OC(C)(C)C)C2)cc1C(=O)Nc1ccccc1Cl | % | 96.1 |

Give measured inhibition for every item shown.
1. COc1ccc(S(=O)(=O)N[C@H]2CCOC2)cc1C(=O)Nc1ccccc1Cl
2. COc1ccc(S(=O)(=O)NC2CCNCC2)cc1C(=O)Nc1ccccc1Cl
3. COc1ccc(S(=O)(=O)N[C@@H]2CCNC2)cc1C(=O)Nc1ccccc1Cl
4. COc1ccc(S(=O)(=O)N[C@H]2CCN(C(=O)C[C@H](N)C(=O)O)C2)cc1C(=O)Nc1ccccc1Cl
5. COc1ccc(S(=O)(=O)N[C@H]2CCN(C(=O)[C@@H](N)CCC(=O)O)C2)cc1C(=O)Nc1ccccc1Cl
6. COc1ccc(S(=O)(=O)N[C@H]2CCN(C(=O)CC[C@H](N)C(=O)O)C2)cc1C(=O)Nc1ccccc1Cl.Cl

1: 98.8; 2: 96.3; 3: 97.8; 4: 103; 5: 94.5; 6: 102

Give measured inhibition for every item shown.
1. COc1ccc(S(=O)(=O)N[C@H]2CCN(C(=O)[C@@H](N)CC(=O)O)C2)cc1C(=O)Nc1ccccc1Cl
2. COc1ccc(S(=O)(=O)N[C@@H]2CCN(C(=O)OC(C)(C)C)C2)cc1C(=O)Nc1ccccc1Cl
3. COc1ccc(S(=O)(=O)N[C@@H]2CCN(C(=O)C[C@H](N)C(=O)O)C2)cc1C(=O)Nc1ccccc1Cl
4. COc1ccc(S(=O)(=O)NC2CCN(C(=O)OC(C)(C)C)CC2)cc1C(=O)Nc1ccccc1Cl
5. COc1ccc(S(=O)(=O)N[C@H]2CCNC2)cc1C(=O)Nc1ccccc1Cl

1: 94.3; 2: 99; 3: 100; 4: 47.1; 5: 93.7

###

Test Summary: Clearance in male ICR mouse at 2 mg/kg, iv measured after 24 hrs by LC-MS/MS analysis
Format: ADME, organism-based
Conditions Used: in vivo
Quantity: clearance (mL/min/kg)
One number for each entry, in mL/min/kg.

clearance reading for COc1ccc(S(=O)(=O)N[C@H]2CCN(C(=O)CC[C@H](N)C(=O)O)C2)cc1C(=O)Nc1ccccc1Cl.Cl : 34.5
